procedureDetails: In vivo mouse PK
testConditions: in vivo mouse PK
observable: clearance (mL/min/kg)
Express your answer in mL/min/kg, writing the number without its unit.

Query block: Please look at this compound and report its clearance: `C[C@@H]1COCCN1c1cc(N2CCCC[C@@H]2C(F)(F)F)[nH]c(=O)c1`
Result block: 26

* * *

procedureDetails: Shake flask LogD
Assay type: physicochemical
observable: logD

Query block: Please look at this molecule and report its logD: C[C@@H]1COCCN1c1cc(N2CCCC[C@@H]2C(F)(F)F)[nH]c(=O)c1 [SB02024]
Result block: 1.8

* * *

procedureDetails: CaCo2 monolayer permeability assay
Format: in vitro ADME
testConditions: human, Caco-2
observable: efflux ratio
Could you keep your reply to the number by itself?

Query block: Please look at this compound and report its efflux ratio: `C[C@@H]1COCCN1c1cc(N2CCCC[C@@H]2C(F)(F)F)[nH]c(=O)c1`
Result block: 0.9
